Measurement record for Lymphokine-activated killer T-cell-originated protein kinase (Homo sapiens); quantity recorded: ΔTm.
Field: numeric (°C). Do not append units.

Form field: reported ΔTm of `NCCNc1ncc(C(N)=O)c(Nc2cccc(C(F)(F)F)c2)n1`
0.5

Try `CN[C@@H]1CC2O[C@@](C)([C@@H]1OC)n1c3ccccc3c3c4c(c5c6ccccc6n2c5c31)C(=O)NC4` next.
0.4

Try `O=C(O)c1cc(NCc2cc(O)ccc2O)ccc1O` next.
0

Try `O=c1c(O)c(-c2ccc(O)c(O)c2)oc2cc(O)cc(O)c12` next.
0.4

Try `O=C1Nc2ccc(I)cc2/C1=C1/Nc2ccccc2/C1=N\O` next.
-2.4

Try `O=c1c(-c2ccc(O)cc2)coc2cc(O)cc(O)c12` next.
0.7

* * *

- system: Serine/threonine-protein kinase PAK 4 (Homo sapiens)
reported_property: ΔTm

{"molecule": "C[S+]([O-])c1ccc(CSc2nc(-c3ccc(F)cc3)c(-c3ccncc3)[nH]2)cc1 (stereo unspecified)", "ΔTm": "0.1 °C"}
{"molecule": "CC(C)N(CCO)c1nc(Nc2cccc(Cl)c2)c2ncn(C(C)C)c2n1", "ΔTm": "4.7 °C"}
{"molecule": "O=C1NC(=O)C(c2c[nH]c3ccccc23)=C1c1c[nH]c2ccccc12", "ΔTm": "1.8 °C"}

Now consider a different molecule.
Form field: reported ΔTm of `N#C/C(=C1/Nc2ccccc2S1)c1ccnc(NCCc2cccnc2)n1`
1.3 °C

* * *

- system: Serine/threonine-protein kinase Nek2 (Homo sapiens)
- Sequence (whole entry): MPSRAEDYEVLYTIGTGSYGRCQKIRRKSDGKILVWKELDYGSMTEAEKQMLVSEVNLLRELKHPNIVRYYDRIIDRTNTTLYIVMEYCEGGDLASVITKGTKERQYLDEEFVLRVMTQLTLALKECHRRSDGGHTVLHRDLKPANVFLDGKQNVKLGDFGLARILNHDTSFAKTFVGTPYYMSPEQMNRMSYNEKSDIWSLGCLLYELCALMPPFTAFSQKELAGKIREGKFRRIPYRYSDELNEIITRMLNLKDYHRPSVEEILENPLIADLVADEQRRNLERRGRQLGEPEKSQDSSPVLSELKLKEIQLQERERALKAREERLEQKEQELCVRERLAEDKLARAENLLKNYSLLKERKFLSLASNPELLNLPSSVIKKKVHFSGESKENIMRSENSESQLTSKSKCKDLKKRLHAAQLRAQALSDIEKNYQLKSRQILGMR
ΔTm strictly under 0.6 °C means rule met; at 0.6 °C or over means rule not met.

Is ΔTm of `COc1cc(OC)c(/C=C2\C(=O)Nc3ccccc32)c(OC)c1` strictly below 0.6 °C?
rule met

Try CC[C@H](CO)Nc1nc(NCc2ccccc2)c2ncn(C(C)C)c2n1 [SELICICLIB] next.
rule not met

Try `O=C(O)Cc1ccc(O)c([N+](=O)[O-])c1` next.
rule not met

Try `N=C(N)NCCNS(=O)(=O)c1cccc2cnccc12` next.
rule met

Try CN(C)c1ccc(CC2C(=O)Nc3ccccc32)cc1 (stereo unspecified) next.
rule met

Try `CC(C)(C)n1nc(-c2ccc(Cl)cc2)c2c(N)ncnc21` next.
rule met

* * *

- system: Aryl hydrocarbon receptor (Homo sapiens)
- Sequence (P35869 whole entry): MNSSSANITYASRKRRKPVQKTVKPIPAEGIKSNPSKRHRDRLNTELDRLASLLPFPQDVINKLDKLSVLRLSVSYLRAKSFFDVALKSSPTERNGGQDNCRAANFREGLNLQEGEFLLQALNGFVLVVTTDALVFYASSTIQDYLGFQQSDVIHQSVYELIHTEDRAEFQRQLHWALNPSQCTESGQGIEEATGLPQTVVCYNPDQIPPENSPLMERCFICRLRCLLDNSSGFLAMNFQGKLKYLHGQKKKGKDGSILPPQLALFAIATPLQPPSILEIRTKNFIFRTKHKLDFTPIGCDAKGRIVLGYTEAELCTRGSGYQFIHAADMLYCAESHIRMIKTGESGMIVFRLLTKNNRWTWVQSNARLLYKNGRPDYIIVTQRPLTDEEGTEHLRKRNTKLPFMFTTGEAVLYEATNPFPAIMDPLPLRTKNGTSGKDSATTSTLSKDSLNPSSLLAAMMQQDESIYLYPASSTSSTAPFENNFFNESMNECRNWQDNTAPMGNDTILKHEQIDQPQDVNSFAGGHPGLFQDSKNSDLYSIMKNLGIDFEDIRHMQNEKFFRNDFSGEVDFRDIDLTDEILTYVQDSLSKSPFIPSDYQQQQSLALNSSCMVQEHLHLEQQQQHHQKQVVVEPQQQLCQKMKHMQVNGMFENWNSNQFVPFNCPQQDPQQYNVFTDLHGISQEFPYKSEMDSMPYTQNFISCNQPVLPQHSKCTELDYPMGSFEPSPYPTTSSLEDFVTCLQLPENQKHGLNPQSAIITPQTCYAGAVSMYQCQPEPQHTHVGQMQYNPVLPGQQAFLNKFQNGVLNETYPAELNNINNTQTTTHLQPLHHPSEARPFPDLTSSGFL
- assay_overview: Agonist activity at human aryl hydrocarbon receptor
reported_property: pEC50
The meaning of pEC50 here: minus log10 of the concentration in molar units.

Form field: reported pEC50 of `CC(=O)O/N=C1/C(=C2/C(=O)Nc3cc(Br)ccc32)Nc2ccccc21`
6.80
